Biological target: UniProt P21554
Sequence (P21554 whole entry): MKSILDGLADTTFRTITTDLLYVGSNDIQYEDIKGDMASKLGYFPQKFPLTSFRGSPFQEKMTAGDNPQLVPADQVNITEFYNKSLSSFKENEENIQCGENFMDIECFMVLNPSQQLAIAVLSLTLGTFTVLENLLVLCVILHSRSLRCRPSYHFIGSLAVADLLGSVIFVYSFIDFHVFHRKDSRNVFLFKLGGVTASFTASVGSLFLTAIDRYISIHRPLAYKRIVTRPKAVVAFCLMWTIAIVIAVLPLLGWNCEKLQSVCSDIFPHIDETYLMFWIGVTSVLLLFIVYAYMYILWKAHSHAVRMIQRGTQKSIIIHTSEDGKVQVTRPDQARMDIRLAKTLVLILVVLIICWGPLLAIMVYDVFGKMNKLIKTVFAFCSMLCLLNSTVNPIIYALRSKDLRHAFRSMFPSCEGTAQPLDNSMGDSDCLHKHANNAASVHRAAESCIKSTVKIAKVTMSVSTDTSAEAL
Test: bioSensAll ebBRET signaling profiling, hCB1
Type: cell-based
Parameters: host or cells: HEK293SL cells, transient PEI transfection
Details: Barr2+GRK2 biosensor; Log [Compound] (M) -9.61989

| COMPOUND | Barr2+GRK2 hCB1 response |
| --- | --- |
| Cc1c(C(=O)OCC2CSc3ccccc3O2)cnn1Cc1ccccc1 (stereo not drawn) [‘7800] | -54.897 |
| Cc1nn(Cc2ccc(Cl)cc2)c(C)c1C(=O)OCC1CSc2ccccc2O1 (stereo not drawn) [‘5463] | -38.9433 |
| Cn1nc(-c2nnc(C(C)(C)Oc3ccc(Cl)cc3)o2)c2ccccc2c1=O [‘0450] | -47.5583 |
| Brc1cc2c(cc1Cc1noc(-c3cnn(CC4CC4)c3)n1)OCO2 [‘5424] | -48.1965 |
| Cc1nc(CC2CC2)oc1-c1nc(Cc2cc3c(cc2Br)OCO3)no1 [‘7019] | -29.3712 |
| Cn1nc(-c2nnc(C(C)(C)Oc3ccc(C(F)(F)F)cc3)o2)c2ccccc2c1=O [‘2153] | -19.4799 |
